Parameter: MIC. Scope: all listed entries.
# Tested on: Streptococcus pneumoniae
# ASSAY OVERVIEW: Antimicrobial activity against Streptococcus pneumoniae 7 expressing inducible ermB after 20 hrs by agar dilution method
# Assay type: functional
All answers are understood in µg/mL, so give the number only.

# MIC (molecule: CCOC(=O)[C@H]1[C@H](C)O[C@@H](O[C@H]2[C@H](N(C)C)[C@@H](O)[C@H](O[C@H]3[C@@H](CC=O)C[C@@H](C)[C@@H](O)CN(C)CCC(C/C=C/c4cnc5ccccc5c4)NC(=O)C[C@@H](OC(=O)CC)[C@@H]3OC)O[C@@H]2C)C[C@@]1(C)O (stereo in doubt; form 1) ) is 32

# MIC (molecule: CCOC(=O)[C@H]1[C@H](C)O[C@@H](O[C@H]2[C@H](N(C)C)[C@@H](O)[C@H](O[C@H]3[C@@H](CC=O)C[C@@H](C)[C@@H](O)CN(C)CC(/C=C/Cc4cnc5ccccc5c4)CCOC(=O)C[C@@H](OC(=O)CC)[C@@H]3OC)O[C@@H]2C)C[C@@]1(C)O (stereo in doubt; form 1) ) is 1

Given item CCOC(=O)[C@H]1[C@H](C)O[C@@H](O[C@H]2[C@H](N(C)C)[C@@H](O)[C@H](O[C@H]3[C@@H](CC=O)C[C@@H](C)[C@@H](O)CN(C)CCC(CCCc4cnc5ccccc5c4)NC(=O)C[C@@H](OC(=O)CC)[C@@H]3OC)O[C@@H]2C)C[C@@]1(C)O (stereo in doubt) , the value recorded as its MIC is 8

New cases:
Lab note: CCOC(=O)[C@H]1[C@H](C)O[C@@H](O[C@H]2[C@H](N(C)C)[C@@H](O)[C@H](O[C@H]3[C@@H](CC=O)C[C@@H](C)[C@@H](O)CN(C)CC(/C=C/Cc4ccnc5ccccc45)CCOC(=O)C[C@@H](OC(=O)CC)[C@@H]3OC)O[C@@H]2C)C[C@@]1(C)O (stereo in doubt; form 2) gave MIC of 128

MIC reported for this molecule CCOC(=O)[C@H]1[C@H](C)O[C@@H](O[C@H]2[C@H](N(C)C)[C@@H](O)[C@H](O[C@H]3[C@@H](CC=O)C[C@@H](C)[C@@H](O)CN(C)CCC(/C=C/Cc4ccnc5ccccc45)NC(=O)C[C@@H](OC(=O)CC)[C@@H]3OC)O[C@@H]2C)C[C@@]1(C)O (stereo in doubt) : 64

* * *

# Test system: Haemophilus influenzae
# ASSAY OVERVIEW: Antimicrobial activity against drug-susceptible Haemophilus influenzae 3 after 20 hrs by agar dilution method
# Type: functional
MEASURED PROPERTY: MIC (µg/mL)
Report as a plain number; the unit µg/mL is understood.

Use these answered entries as a reference point.
The measured MIC associated with CCOC(=O)[C@H]1[C@H](C)O[C@@H](O[C@H]2[C@H](N(C)C)[C@@H](O)[C@H](O[C@H]3[C@@H](CC=O)C[C@@H](C)[C@@H](O)CN(C)CCC(/C=C/Cc4ccnc5ccccc45)NC(=O)C[C@@H](OC(=O)CC)[C@@H]3OC)O[C@@H]2C)C[C@@]1(C)O (stereo in doubt) reads 8

Reported MIC of CCOC(=O)[C@H]1[C@H](C)O[C@@H](O[C@H]2[C@H](N(C)C)[C@@H](O)[C@H](O[C@H]3[C@@H](CC=O)C[C@@H](C)[C@@H](O)CN(C)CCC(CCCc4cnc5ccccc5c4)NC(=O)C[C@@H](OC(=O)CC)[C@@H]3OC)O[C@@H]2C)C[C@@]1(C)O (stereo in doubt) : 8

Please fill in: MIC reported for CCOC(=O)[C@H]1[C@H](C)O[C@@H](O[C@H]2[C@H](N(C)C)[C@@H](O)[C@H](O[C@H]3[C@@H](CC=O)C[C@@H](C)[C@@H](O)CN(C)CC(CCCc4ccnc5ccccc45)CCOC(=O)C[C@@H](OC(=O)CC)[C@@H]3OC)O[C@@H]2C)C[C@@]1(C)O (stereo in doubt; form 2) = 8

Reported MIC of CCOC(=O)[C@H]1[C@H](C)O[C@@H](O[C@H]2[C@H](N(C)C)[C@@H](O)[C@H](O[C@H]3[C@@H](CC=O)C[C@@H](C)[C@@H](O)CN(C)CC(/C=C\Cc4ccnc5ccccc45)CCOC(=O)C[C@@H](OC(=O)CC)[C@@H]3OC)O[C@@H]2C)C[C@@]1(C)O (stereo in doubt; form 1) : 16

Recorded MIC (compound CCOC(=O)[C@H]1[C@H](C)O[C@@H](O[C@H]2[C@H](N(C)C)[C@@H](O)[C@H](O[C@H]3[C@@H](CC=O)C[C@@H](C)[C@@H](O)CN(C)CCC(CCCc4ccnc5ccccc45)NC(=O)C[C@@H](OC(=O)CC)[C@@H]3OC)O[C@@H]2C)C[C@@]1(C)O (stereo in doubt; form 2) ): 16

More entries:
Query CCOC(=O)[C@H]1[C@H](C)O[C@@H](O[C@H]2[C@H](N(C)C)[C@@H](O)[C@H](O[C@H]3[C@@H](CC=O)C[C@@H](C)[C@@H](O)CN(CCCCc4ccccc4)CCC(C)NC(=O)C[C@@H](OC(=O)CC)[C@@H]3OC)O[C@@H]2C)C[C@@]1(C)OC(C)=O (stereo in doubt; form 2) yields MIC of 8

For record CCOC(=O)[C@H]1[C@H](C)O[C@@H](O[C@H]2[C@H](N(C)C)[C@@H](O)[C@H](O[C@H]3[C@@H](CC=O)C[C@@H](C)[C@@H](O)CN(C)CC(/C=C/Cc4ccnc5ccccc45)CCOC(=O)C[C@@H](OC(=O)CC)[C@@H]3OC)O[C@@H]2C)C[C@@]1(C)O (stereo in doubt; form 2) the listed MIC is 16

GET /value?item= CCOC(=O)[C@H]1[C@H](C)O[C@@H](O[C@H]2[C@H](N(C)C)[C@@H](O)[C@H](O[C@H]3[C@@H](CC=O)C[C@@H](C)[C@@H](O)CN(C)CC(/C=C/Cc4cnc5ccccc5c4)CCOC(=O)C[C@@H](OC(=O)CC)[C@@H]3OC)O[C@@H]2C)C[C@@]1(C)O (stereo in doubt; form 2) &field=MIC returns 16

* * *

# Tested on: Haemophilus influenzae
# ASSAY OVERVIEW: Antimicrobial activity against drug-susceptible Haemophilus influenzae 2 after 20 hrs by agar dilution method
# Type: functional
# PARTICULARS: Haemophilus influenzae, 20 h; read-out: MIC
Some molecules, each annotated with its measured MIC.
Just the number in µg/mL, nothing appended.

# example entries with known answers
Data point: "CCOC(=O)[C@H]1[C@H](C)O[C@@H](O[C@H]2[C@H](N(C)C)[C@@H](O)[C@H](O[C@H]3[C@@H](CC=O)C[C@@H](C)[C@@H](O)CN(C)CCC[C@@H](CCCc4ccnc5ccccc45)OC(=O)C[C@@H](OC(=O)CC)[C@@H]3OC)O[C@@H]2C)C[C@@]1(C)O" ; MIC = 4

Entry CCOC(=O)[C@H]1[C@H](C)O[C@@H](O[C@H]2[C@H](N(C)C)[C@@H](O)[C@H](O[C@H]3[C@@H](CC=O)C[C@@H](C)[C@@H](O)CN(C)CC(CCCc4ccnc5ccccc45)CCOC(=O)C[C@@H](OC(=O)CC)[C@@H]3OC)O[C@@H]2C)C[C@@]1(C)O (stereo in doubt; form 2) — recorded MIC = 2

// MIC lookup, molecule = "CCOC(=O)[C@H]1[C@H](C)O[C@@H](O[C@H]2[C@H](N(C)C)[C@@H](O)[C@H](O[C@H]3[C@@H](CC=O)C[C@@H](C)[C@@H](O)CN(CCCCc4ccccc4)CCCOC(=O)C[C@@H](OC(=O)CC)[C@@H]3OC)O[C@@H]2C)C[C@@]1(C)OC(C)=O" , result: 1

--- query ---
Notebook: CCC(=O)O[C@@H]1CC(=O)O[C@H](C)C/C=C/C=C/[C@H](OC(C)=O)[C@H](C)C[C@H](CC=O)[C@H](O[C@@H]2O[C@H](C)[C@@H](O[C@H]3C[C@@](C)(OC(C)=O)[C@@H](OC(=O)CC)[C@H](C)O3)[C@H](N(C)C)[C@H]2O)[C@H]1OC [MIOCAMYCIN] , MIC read as 2

* * *

# System: Staphylococcus aureus
# ASSAY OVERVIEW: Antimicrobial activity against Staphylococcus aureus 5 expressing inducible ermB after 20 hrs by agar dilution method
# Assay type: functional
MEASURED PROPERTY: MIC (µg/mL)
The reply should be a number in µg/mL, with the unit left off.

Lab note: compound CCOC(=O)[C@H]1[C@H](C)O[C@@H](O[C@H]2[C@H](N(C)C)[C@@H](O)[C@H](O[C@H]3[C@@H](CC=O)C[C@@H](C)[C@@H](O)CN(C)CCC(/C=C/Cc4ccnc5ccccc45)NC(=O)C[C@@H](OC(=O)CC)[C@@H]3OC)O[C@@H]2C)C[C@@]1(C)O (mixture of isomers) tested on Staphylococcus aureus; recorded MIC was 0.5

Reported Staphylococcus aureus MIC for item CCOC(=O)[C@H]1[C@H](C)O[C@@H](O[C@H]2[C@H](N(C)C)[C@@H](O)[C@H](O[C@H]3[C@@H](CC=O)C[C@@H](C)[C@@H](O)CN(C)CCC(/C=C/Cc4ccnc5ccccc45)NC(=O)C[C@@H](OC(=O)CC)[C@@H]3OC)O[C@@H]2C)C[C@@]1(C)O (stereo in doubt) was 2

Item CCOC(=O)[C@H]1[C@H](C)O[C@@H](O[C@H]2[C@H](N(C)C)[C@@H](O)[C@H](O[C@H]3[C@@H](CC=O)C[C@@H](C)[C@@H](O)CN(C)CC(CCCc4ccnc5ccccc45)CCOC(=O)C[C@@H](OC(=O)CC)[C@@H]3OC)O[C@@H]2C)C[C@@]1(C)O (stereo in doubt; form 2) was tested on Staphylococcus aureus; the reported MIC is 0.25

***
Fill in: Staphylococcus aureus MIC for CCOC(=O)[C@H]1[C@H](C)O[C@@H](O[C@H]2[C@H](N(C)C)[C@@H](O)[C@H](O[C@H]3[C@@H](CC=O)C[C@@H](C)[C@@H](O)CN(C)CC(/C=C\Cc4ccnc5ccccc45)CCOC(=O)C[C@@H](OC(=O)CC)[C@@H]3OC)O[C@@H]2C)C[C@@]1(C)O (stereo in doubt; form 1) = 0.25

Readout MIC for CCOC(=O)[C@H]1[C@H](C)O[C@@H](O[C@H]2[C@H](N(C)C)[C@@H](O)[C@H](O[C@H]3[C@@H](CC=O)C[C@@H](C)[C@@H](O)CN(C)CCC(C/C=C/c4ccnc5ccccc45)NC(=O)C[C@@H](OC(=O)CC)[C@@H]3OC)O[C@@H]2C)C[C@@]1(C)O (stereo in doubt) , test system Staphylococcus aureus, was 2

CCOC(=O)[C@H]1[C@H](C)O[C@@H](O[C@H]2[C@H](N(C)C)[C@@H](O)[C@H](O[C@H]3[C@@H](CC=O)C[C@@H](C)[C@@H](O)CN(C)CCC(C/C=C/c4ccnc5ccccc45)NC(=O)C[C@@H](OC(=O)CC)[C@@H]3OC)O[C@@H]2C)C[C@@]1(C)O (single isomer, unassigned) tested on Staphylococcus aureus gave MIC: 0.5

Entry CCOC(=O)[C@H]1[C@H](C)O[C@@H](O[C@H]2[C@H](N(C)C)[C@@H](O)[C@H](O[C@H]3[C@@H](CC=O)C[C@@H](C)[C@@H](O)CN(C)CCC(CCCc4ccnc5ccccc45)NC(=O)C[C@@H](OC(=O)CC)[C@@H]3OC)O[C@@H]2C)C[C@@]1(C)O (stereo in doubt; form 1) ; assay system Staphylococcus aureus; MIC recorded at 1
